System: HOP-62 NSCLC
test-description: NCI-60 one-dose screen, 48 h (100 = growth as untreated, 0 = no growth, -100 = all killed)
settings: 10 µM unless noted
About 83,000 compounds went through this panel and 20% of them were active in at least one assay; those are over-represented in the sample as a whole.
Decide using growth alone. Strictly below 60%: YES. Equal to or above 60%: NO.

Solved entries (count: 4):
O=C(c1ccccc1)C(Cl)C(Cl)c1ccccc1 (stereo not drawn) : NO
COc1cccc2nc(Nc3ccc(NC(=O)c4ccc5ncccc5c4)cc3)ccc12 : NO
COc1ncc(-c2ccc3ncnc(Nc4cccc(Cl)c4)c3c2)cc1NS(=O)(=O)C1CC1 : YES
COc1ccc(C2CC(c3cccs3)=NN2c2ccc(S(=O)(=O)NC(=O)Nc3ccc(C)cc3)cc2)cc1 (stereo not drawn) : NO

For this compound, is growth lower than 60%? CCC(=O)Oc1ccc2c(c1)CC[C@@H]1[C@@H]2CC[C@]2(C)C[C@H](OC(=O)CC)C[C@@H]12
NO

A record lists COC1=CC(c2ccc[nH]2)=N/C1=C\c1[nH]c(C)c(C(=O)CCC(=O)Oc2ccc3c(c2)CCC2C3CC[C@]3(C)[C@@H](O)CC[C@@H]23)c1C (stereo partly drawn) . Is its growth below 60%?
YES

Consider CCNC(=O)C1CCCN1C(=O)C(CCCN=C(N)N)NC(=O)C(CC(C)C)NC(=O)C(CC(C)C)NC(=O)C(Cc1ccc(O)cc1)NC(=O)C(CO)NC(=O)C(Cc1c[nH]c2ccccc12)NC(=O)C(Cc1cnc[nH]1)NC(=O)C1CCC(=O)N1 (stereo not drawn) . Does its growth lie strictly below 60%?
NO

# TODO verify growth < 60% strictly for this compound: O=C1Nc2cc(Cl)ccc2Oc2cc(Oc3ccccc3)ccc21
NO
